Molecular target: GST-PERK enzyme (Homo sapiens, UniProt Q9NZJ5)
Sequence (Q9NZJ5 30-1116): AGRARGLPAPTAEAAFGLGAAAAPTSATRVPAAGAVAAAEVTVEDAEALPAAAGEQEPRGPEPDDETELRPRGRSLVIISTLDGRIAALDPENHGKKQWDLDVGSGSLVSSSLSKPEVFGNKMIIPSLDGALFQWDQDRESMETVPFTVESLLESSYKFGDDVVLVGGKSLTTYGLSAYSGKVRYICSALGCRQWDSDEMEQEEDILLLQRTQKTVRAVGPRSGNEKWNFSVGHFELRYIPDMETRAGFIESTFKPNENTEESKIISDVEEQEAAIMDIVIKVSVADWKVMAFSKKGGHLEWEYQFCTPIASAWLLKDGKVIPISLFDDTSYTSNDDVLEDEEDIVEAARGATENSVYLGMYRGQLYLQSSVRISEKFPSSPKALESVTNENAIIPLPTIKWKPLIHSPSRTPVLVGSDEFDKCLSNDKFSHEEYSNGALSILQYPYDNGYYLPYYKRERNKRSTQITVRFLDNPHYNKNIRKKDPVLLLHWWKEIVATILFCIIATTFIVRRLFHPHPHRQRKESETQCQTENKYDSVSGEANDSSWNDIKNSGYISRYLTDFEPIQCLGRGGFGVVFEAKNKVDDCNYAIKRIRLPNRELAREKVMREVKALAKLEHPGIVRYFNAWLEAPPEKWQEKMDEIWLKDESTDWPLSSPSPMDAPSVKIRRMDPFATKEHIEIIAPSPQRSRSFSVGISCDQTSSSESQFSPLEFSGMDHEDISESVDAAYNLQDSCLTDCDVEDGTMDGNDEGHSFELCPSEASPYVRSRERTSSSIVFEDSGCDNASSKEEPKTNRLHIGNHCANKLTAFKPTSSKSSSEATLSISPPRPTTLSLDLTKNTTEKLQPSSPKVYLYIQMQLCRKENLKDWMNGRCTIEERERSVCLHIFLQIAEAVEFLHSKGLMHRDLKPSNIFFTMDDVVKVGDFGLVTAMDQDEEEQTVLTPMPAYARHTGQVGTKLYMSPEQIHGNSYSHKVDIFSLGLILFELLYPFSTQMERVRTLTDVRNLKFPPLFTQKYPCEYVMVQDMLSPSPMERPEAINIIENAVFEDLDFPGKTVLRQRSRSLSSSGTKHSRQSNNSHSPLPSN
Experiment: PERK enzyme assay
Assay type: biochemical
Details: 500 μM ATP; biotin-eIF2α substrate, 60 minutes; read-out: average PERK Enzyme (500 μM ATP) pIC50 (converted)
measurement type: IC50 (nM)

* Cc1ccccc1Cc1cc2ccc(-c3cn(C4CC4)c4ncnc(N)c34)c(F)c2cn1 | 12.6
* Cn1cc(-c2ccc3cc(Cc4cc(F)ccc4F)ncc3c2F)c2c(N)ncnc21 | 1000
* CN(C)CCn1cc(-c2ccc3cc(Cc4cc(F)cc(F)c4)ncc3c2F)c2c(N)ncnc21 | 1580
* Nc1ncnc2c1c(-c1ccc3cc(Cc4cc(C(F)(F)F)ccc4F)ncc3c1F)cn2C1CC1 | 100
* CCn1cc(-c2ccc3cc(Cc4cc(F)cc(F)c4)ncc3c2F)c2c(N)ncnc21 | 158
* Nc1ncnc2c1c(-c1ccc3cc(Cc4cccc(Cl)c4F)ncc3c1F)cn2C1CC1 | 3.16
* Cn1cc(-c2ccc3cc(Cc4cc(F)cc(F)c4)ncc3c2F)c2c(N)ncnc21 | 251
* Nc1ncnc2c1c(-c1ccc3cc(Cc4cncc(F)c4)ncc3c1F)cn2C1CC1 | 631
* Cc1nc(N)c2c(-c3ccc4cc(Cc5cc(F)cc(F)c5)ncc4c3F)cn(C3CC3)c2n1 | 2510

Reference source: patent US20190241573A1
